# System: 926638-142-R-J1-PDC complex spheroid viability
# Assay comment: Anticancer human tumor 926638-142-R-J1-PDC patient-derived endometrial carcinoma cell line growth inhibition [POLQ]
# Experimental context: second compound 10 µM; first compound 0.316 µM; active compounds read low
# Protocol: Multicellular complex tumor spheroid response to Polymerase (POL) inhibitors (novobiocin, ART-558, RP6685) in combination with a variety of drugs and investigational agents in selected tumor cell lines The POL inhibitors (novobiocin, ART-558, and RP6685) were evaluated both individually and in combination with standard of care and investigational anticancer small molecules within a complex spheroid model of solid tumors. . […]
Reported viability, T/C is given for each of the following compounds.
Please give a number only; it is taken to be in %.

Example entries begin here.
CCc1cc2c(N3CCc4c(cc(Cn5ccnc5)cc4-c4cn(C)nc4C(F)(F)F)C3=O)ccnc2c(OC)n1 + COC1C(OC(N)=O)C(O)C(Oc2ccc3c(O)c(NC(=O)c4ccc(O)c(CC=C(C)C)c4)c(=O)oc3c2C)OC1(C)C : 47
Nc1ccn(C2OC(CO)C(O)C2(F)F)c(=O)n1 (stereo not drawn) + Cc1cccc(N(C)C(=O)C2C(O)CCN2c2nc(C)cc(C(F)(F)F)c2C#N)c1 : 52

Inquiry: Query the reported viability, T/C for 926638-142-R-J1-PDC complex spheroid viability; item: CCc1c2c(nc3ccc(O)cc13)-c1cc3c(c(=O)n1C2)COC(=O)[C@]3(O)CC + Cc1cccc(N(C)C(=O)C2C(O)CCN2c2nc(C)cc(C(F)(F)F)c2C#N)c1
Reply text: 10.4

Inquiry: What do we get for O=c1[nH]cc(F)c(=O)[nH]1 + Cc1cccc(N(C)C(=O)C2C(O)CCN2c2nc(C)cc(C(F)(F)F)c2C#N)c1 ?
Reply text: 90

====

# System: 926638-142-R-J1-PDC complex spheroid viability
# Assay comment: Anticancer human tumor 926638-142-R-J1-PDC cell line growth inhibition [POLQ]; active = viability on the fitted dose curve at most 10% of control; inactive = the rest;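 further: spheroids exposed to drugs for one week before readout; percent viability relative to DMSO vehicle control wells set as 100%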
# Experimental context: second compound 3.16 µM; first compound 10 µM
Hi! Could you answer with just one of these? active, inactive

Worked cases, answers included:
O=c1[nH]cc(F)c(=O)[nH]1 + Cc1cccc(N(C)C(=O)C2C(O)CCN2c2nc(C)cc(C(F)(F)F)c2C#N)c1 : inactive
O=C(Nc1ccc(O)c(NS(=O)(=O)c2ccc(F)cc2)c1)c1ccc(-c2ccccc2)cc1 + COC1C(OC(N)=O)C(O)C(Oc2ccc3c(O)c(NC(=O)c4ccc(O)c(CC=C(C)C)c4)c(=O)oc3c2C)OC1(C)C : inactive

Note: attention shifts to another entry.
Inquiry: What did the test return for CC1COCCN1c1cc(-c2ccnn2C)c2ccnc(-c3ccn[nH]3)c2n1 (stereo not drawn) + COC1C(OC(N)=O)C(O)C(Oc2ccc3c(O)c(NC(=O)c4ccc(O)c(CC=C(C)C)c4)c(=O)oc3c2C)OC1(C)C ?
Reply text: active

====

# Tested on: 926638-142-R-J1-PDC complex spheroid viability
# Assay comment: Anticancer human tumor 926638-142-R-J1-PDC cell line growth inhibition [POLQ];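 further: spheroids exposed to drugs for one week before readout; percent viability relative to DMSO vehicle control wells set as 100%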
# Experimental context: second compound 0.0316 µM; first compound 1 µM; active compounds read low
# Description: Multicellular complex tumor spheroid response to Polymerase (POL) inhibitors (novobiocin, ART-558, RP6685) in combination with a variety of drugs and investigational agents in selected tumor cell lines The POL inhibitors (novobiocin, ART-558, and RP6685) were evaluated both individually and in combination with standard of care and investigational anticancer small molecules within a complex spheroid model of solid tumors. . […]
Reported viability, T/C is given for each of the following compounds.
Please give a number only; it is taken to be in %.

Example entries begin here.
COc1cc(C2c3cc4c(cc3C(OC3OC5COC(C)OC5C(O)C3O)C3COC(=O)C23)OCO4)cc(OC)c1O (stereo not drawn) + Cc1cccc(N(C)C(=O)C2C(O)CCN2c2nc(C)cc(C(F)(F)F)c2C#N)c1 : 73
O=C(Nc1ccc(O)c(NS(=O)(=O)c2ccc(F)cc2)c1)c1ccc(-c2ccccc2)cc1 + COC1C(OC(N)=O)C(O)C(Oc2ccc3c(O)c(NC(=O)c4ccc(O)c(CC=C(C)C)c4)c(=O)oc3c2C)OC1(C)C : 99.4
C=CC(=O)N1CCN(c2nc(=O)n(-c3c(C)ccnc3C(C)C)c3nc(-c4c(O)cccc4F)c(F)cc23)C(C)C1 (stereo not drawn) + COC1C(OC(N)=O)C(O)C(Oc2ccc3c(O)c(NC(=O)c4ccc(O)c(CC=C(C)C)c4)c(=O)oc3c2C)OC1(C)C : 86.8
CCc1cc2c(N3CCc4c(cc(Cn5ccnc5)cc4-c4cn(C)nc4C(F)(F)F)C3=O)cc(C)nc2c(OC)n1 + Cc1cccc(N(C)C(=O)C2C(O)CCN2c2nc(C)cc(C(F)(F)F)c2C#N)c1 : 44.4
CC1COCCN1c1cc(C2(S(C)(=N)=O)CC2)nc(-c2ccnc3[nH]ccc23)n1 (stereo not drawn) + COC1C(OC(N)=O)C(O)C(Oc2ccc3c(O)c(NC(=O)c4ccc(O)c(CC=C(C)C)c4)c(=O)oc3c2C)OC1(C)C : 88.1
C=CCn1c(=O)c2cnc(Nc3ccc(N4CCN(C)CC4)cc3)nc2n1-c1cccc(C(C)(C)O)n1 + Cc1cccc(N(C)C(=O)C2C(O)CCN2c2nc(C)cc(C(F)(F)F)c2C#N)c1 : 34

Inquiry: Query the reported viability, T/C for 926638-142-R-J1-PDC complex spheroid viability; item: COc1cc(C2c3cc4c(cc3C(OC3OC5COC(C)OC5C(O)C3O)C3COC(=O)C23)OCO4)cc(OC)c1O (stereo not drawn) + Nc1ccc(C#CCN(C(=O)Cc2ncc(C(F)(F)F)cc2C(F)(F)F)c2ccc(F)cc2)nn1
Reply text: 73.1

Inquiry: What do we get for CCc1c2c(nc3ccc(O)cc13)-c1cc3c(c(=O)n1C2)COC(=O)[C@]3(O)CC + Cc1cccc(N(C)C(=O)C2C(O)CCN2c2nc(C)cc(C(F)(F)F)c2C#N)c1 ?
Reply text: 5.47

Inquiry: What do we get for COc1ccc([C@@H](O)c2cc(-c3ncnc4cc(N5CCOCC5)ccc34)c(F)cc2Cl)nn1 + Nc1ccc(C#CCN(C(=O)Cc2ncc(C(F)(F)F)cc2C(F)(F)F)c2ccc(F)cc2)nn1 ?
Reply text: 47.2

Inquiry: What do we get for CCc1c2c(nc3ccc(O)cc13)-c1cc3c(c(=O)n1C2)COC(=O)[C@]3(O)CC + COC1C(OC(N)=O)C(O)C(Oc2ccc3c(O)c(NC(=O)c4ccc(O)c(CC=C(C)C)c4)c(=O)oc3c2C)OC1(C)C ?
Reply text: 4.74

Inquiry: What do we get for COc1cccc2c1C(=O)c1c(O)c3c(c(O)c1C2=O)CC(O)(C(=O)CO)CC3OC1CC(N)C(O)C(C)O1 (stereo not drawn) + COC1C(OC(N)=O)C(O)C(Oc2ccc3c(O)c(NC(=O)c4ccc(O)c(CC=C(C)C)c4)c(=O)oc3c2C)OC1(C)C ?
Reply text: 1.39

Inquiry: What do we get for COc1cc(C2c3cc4c(cc3C(OC3OC5COC(C)OC5C(O)C3O)C3COC(=O)C23)OCO4)cc(OC)c1O (stereo not drawn) + COC1C(OC(N)=O)C(O)C(Oc2ccc3c(O)c(NC(=O)c4ccc(O)c(CC=C(C)C)c4)c(=O)oc3c2C)OC1(C)C ?
Reply text: 78.4

Inquiry: What do we get for COc1ccc([C@@H](O)c2cc(-c3ncnc4cc(N5CCOCC5)ccc34)c(F)cc2Cl)nn1 + Cc1cccc(N(C)C(=O)C2C(O)CCN2c2nc(C)cc(C(F)(F)F)c2C#N)c1 ?
Reply text: 26.9
